Tested on: NCI-H226 lung
Assay: NCI-60 one-dose screen, 48 h (100 = growth as untreated, 0 = no growth, -100 = all killed)
Details: 10 µM unless noted
This is part of a sample that, as a whole, favours compounds with a hit. Of some 83,000 tested, about 20% had one in any assay.

{"molecule": "Cc1ccc2c(c1)Oc1nc(N)c(C#N)c(N)c1C2Sc1ccc(F)cc1 (centres undefined)", "growth, %": -50.6}
{"molecule": "Cc1ccc(-n2cc(/C=N/NC(=O)c3nc(N)n[nH]3)c(-c3ccc(S(C)(=O)=O)cc3)n2)cc1", "growth, %": 102}
{"molecule": "CS(=O)(=O)Nc1cc(-c2ccc3ncc(C#N)c(NCc4cccc(F)c4)c3c2)cnc1Cl", "growth, %": 9.2}
{"molecule": "CCC(CC)N1C(=O)/C(=c2\\sc3n(c2=O)NC2C(N=3)N(CC)C(=O)N2CC)c2ccccc21 (centres undefined)", "growth, %": 79.1}
{"molecule": "Nc1ccccc1NC(=O)c1ccc(NC(=O)C/C=C/c2cccnc2)cn1", "growth, %": 25.1}
{"molecule": "CC1=CC(=O)C2=C(C)CC(OC(=O)CCc3ccccc3)[C@@H]3[C@H](OC(=O)[C@@H]3C)[C@@H]12 (some centres undefined)", "growth, %": 97.9}
{"molecule": "Cc1cc2ncc(-c3cc4ccccc4c(N4CCN(C)CC4)n3)nc2cc1C", "growth, %": 91.9}
{"molecule": "COc1cc(-c2nn(C(C)(C)C)cc2-c2ccnc(NCCCNS(=O)(=O)c3ccccc3)n2)ccc1Cl", "growth, %": 66}
{"molecule": "CS(=O)(=O)Nc1cc(-c2ccc3ncc(C#N)c(N[C@H](CO)c4ccccc4)c3c2)cnc1Cl", "growth, %": 56.2}
